Hello, the source for this data is the supplement of paper PMC10126150, in case you need it.

Below, each entry is listed alongside its reported switch fluorescence ratio.
# Test system: ATP;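 note: ATP exposure 15 min at 22 °C before imaging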
# protocol summary: switch fluorescence ratio, 500 uM ATP over buffer (Cy3 cluster intensity, sum of 5 cycles each) (fold (ratio)); higher = stronger signal-on switching upon ATP binding; sequences stand for … in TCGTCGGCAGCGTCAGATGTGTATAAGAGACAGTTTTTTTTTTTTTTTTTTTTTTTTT…TC
# settings: aptamer strand: ATP DNA aptamer (quencher-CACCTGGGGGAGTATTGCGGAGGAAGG + anchor), 100 nM annealed; ATP concentration: 500 uM
reported endpoint: switch fluorescence ratio

1) CAGAAAATGG 1
2) TGGGACTAGT 1.02
3) TATTTAAT 1.07
4) TTTTCCCATT 1.02
5) GATGTGCAAA 1.01
6) TAGGACAGCG 0.969
7) CAGGGACTGG 1
8) TGACCGCCGT 1.06
9) TTCGGGAGGT 1.05
10) TAATACTTTT 1.07
11) CCTATTGGGG 1.02
12) TGGCGTCTGA 1
13) GATTAATAAG 1.16
14) TATGGGGTTA 0.981
15) AATCCTGTTT 1.01
16) GATACGGGGC 1.02
17) TTGCTCTGGA 1.02
18) ACTGGTCGCC 0.992
19) ATGATCAGGG 1.01
20) GATGTCAGGT 1.03
21) TGACACTTAA 1.07
22) TCTGTGGGGA 1.04
23) GGTGATTTAT 1.01
24) AATTCAGCCT 1.06
25) TTCCGGCACT 1.09
26) TGGTAAATCT 1
27) TTTGGATGCG 1.01
28) GCTTATTGTT 0.994
29) TTAGAAGGTG 1.16
30) TCGTTATTCT 1.04
31) GAGAAAGCAG 0.977
32) GCAGTTTTGG 0.992
33) ATATTGAAAT 1.01
34) TAACTAAATT 0.987
35) GGGCTTATGG 0.975
36) GATATGTTGG 0.999
37) CATTTAAAAA 0.919
38) CCCATTTGTA 1
39) GGTCTAACAT 0.998
40) TGAGTCTGTT 1.01
41) TCAATGATGG 1
42) TACCGGGGTA 1.01
43) GGTGTTTGCT 0.965
44) TTACTTCTGG 0.98
45) GTTGGGGTTT 1.01
46) TCTGTAGCGG 1.13
47) TTAACGCGGA 1.03
48) AGTTGGTTAC 1.01
49) ATCCGAGGAG 1.05
50) GGGTATGCTG 0.948
51) TTTTAAGGCA 1.03
52) GCGGTGGGGT 1.01
53) GGTTTATTGT 0.993
54) GGGGATTTTG 0.975
55) GGGGGATAGT 0.998
56) CGCGCTGACA 1.01
57) ATGATCTCGT 0.968
58) CCAGGAGGCG 0.999
59) GCAGTTGGTG 0.958
60) GCGTGGTCAG 0.97
61) TTAAAGCCTT 1.03
62) GCCACGGAGT 0.964
63) AGTATGTGTC 1.01
64) TCGAAGGGGG 1.1
65) GCATTACCGG 1.03
66) CGTATGGGAG 0.945
67) CTCGGGGGAT 1.05
68) ATTCGTTTTA 0.975
69) GCATGTTGGG 1.01
70) ATCGCGGGGG 1.01
71) TGCTGTTCTC 0.995
